Data provenance: PubChem BioAssay

- Test protocol: PSAC antagonists in infected red cells, primary screen, cell-based, P. falciparum Indochina, OD700, 1 h (AID 1154)
- Condition parameters: P. falciparum Indochina infected RBC osmotic lysis, higher = more signal, called active from +8 up or from −8 down
Kindly return met if reported z-score is no lower than 2; return not met if it is lower.

Q: Could you please find out whether COCCCNC(=O)C1N=C(c2ccc(OCCCO)cc2)N(c2ccccc2)O1 (stereo unspecified) has z-score that meets 2 or exceeds it?
Ans: met

Q: Could you please find out whether COc1ccc(COC2OC[C@]3(C)[C@H]4C5=C(CN3C(=O)OC(C)(C)C)[C@H](C)C(CO)C(CO)C5CC[C@@H]24)cc1 (stereo partly specified) has z-score that meets 2 or exceeds it?
Ans: not met

Q: Could you please find out whether "COc1cc2c(cc1OC)CN(C(=O)[C@H]1[C@@H]3C(=O)O[C@@H](c4ccccc4)[C@@H](c4ccccc4)N3[C@@H](c3ccc(O)cc3)[C@]13C(=O)Nc1ccc(C#CC4=CCCCC4)cc13)CC2" has z-score that meets 2 or exceeds it?
Ans: not met

Q: Could you please find out whether "C=CCNC(=O)[C@H]1[C@@H]2C(=O)O[C@@H](c3ccccc3)[C@@H](c3ccccc3)N2[C@@H](c2ccc(OCCO)cc2)[C@]12C(=O)Nc1ccc(C#CC3=CCCCC3)cc12" has z-score that meets 2 or exceeds it?
Ans: met

Q: Could you please find out whether "O=C(NCc1ccccc1)[C@@]1(Cc2ccccc2)N=C(c2ccc(OCCCO)cc2)O[C@H]1c1ccccc1" has z-score that meets 2 or exceeds it?
Ans: met

Q: Could you please find out whether "COCCOC(=O)N1C(=O)[C@@]2(c3cc(C#CC4=CCCCC4)ccc31)[C@H](C(=O)N1CCc3cc(OC)c(OC)cc3C1)[C@H]1C(=O)O[C@H](c3ccccc3)[C@H](c3ccccc3)N1[C@@H]2c1ccc(OCCO)cc1" has z-score that meets 2 or exceeds it?
Ans: met

----------
- Test protocol: basal 3T3-L1 adipocyte mitochondrial potential changes, profiling panel, cell-based, JC-1 fluorescence, 3T3-L1 adipocytes, 24 h, 100 nL compound (AID 1168); further: test concentration not given here
- Condition parameters: JC-1 mitochondrial fluorescence, higher = more signal, called active from +8 up or from −8 down
Kindly return 1 if reported z-score is no lower than 0.001; return 0 if it is lower.

Examples from the recorded data:
INSERT INTO assay_data (molecule, class_name) VALUES
  ('Cc1ccc(S[C@]2(C(=O)NC(C)C)CC(=O)N(Cc3ccccc3Cl)[C@@H]2c2ccc(CO)cc2I)cc1', 0),
  ('COCCOC(=O)N1C(=O)[C@@]2(c3cc(C#CC4=CCCCC4)ccc31)[C@H](C(=O)N1CCc3cc(OC)c(OC)cc3C1)[C@H]1C(=O)O[C@H](c3ccccc3)[C@H](c3ccccc3)N1[C@@H]2c1ccc(OCCO)cc1', 1),
  ('CC(C)C[C@@H]1NC(=O)[C@@H]2C[C@H](C(=O)NCCCCCN)[C@H](c3cccc(OCCO)c3)N2C1=O', 1),
  ('CC(C)(C)OC(=O)CC[C@@]1(C(N)=O)N=C(c2ccc(OCCCO)cc2)O[C@@H]1c1ccccc1', 0),
  ('O=C(NCc1ccccc1)[C@@]1(CCS(=O)(=O)c2ccccc2)N=C(c2ccc(OCCCO)cc2)O[C@H]1c1ccccc1', 1);

Q: Could you please find out whether "CC(C)(C)OC(=O)CC[C@]12N=C(c3ccc(OCCCO)cc3)O[C@H]1c1ccccc1N(CCS(=O)(=O)c1ccccc1)C2=O" has z-score that meets 0.001 or exceeds it?
Ans: 1

Q: Could you please find out whether CCCCCN1CC=CC23O[C@@H]4/C=C\CCCOC(=O)C4[C@H]2C(=O)N(CCCO)[C@@H]3C1=O (some centres not stated) has z-score that meets 0.001 or exceeds it?
Ans: 0
